assay: Hydrolysis stability test in homogeneous aqueous solution; type: physicochemical; conditions: buffer pH 7/acetonitrile, 50° C., 24 hours, first order degradation assumed, read-out: T1/2 (pH 7) (converted)
Where half-life at 58.8 µg/mL equals or exceeds 70 h, the correct label is true; where it does not, the label is false.

{"COMPOUND": "CCN(C)C=Nc1cc(C(F)(F)F)c(Oc2ccccc2F)cc1C", "CLASS NAME": "true"}
{"COMPOUND": "CCN(C)/C=N/c1cc(C)c(Oc2ccccc2F)cc1C [reference compound]", "CLASS NAME": "false"}
{"COMPOUND": "CCN(C)C=Nc1cc(Cl)c(Oc2ccccc2I)cc1C", "CLASS NAME": "false"}
{"COMPOUND": "CCN(C)C=Nc1cc(C(F)(F)F)c(Oc2ccccc2Br)cc1C", "CLASS NAME": "true"}
{"COMPOUND": "CCN(C)/C=N/c1cc(C)c(Oc2ccccc2)cc1C [Compound no. 1 known from WO2008/110313, reference compound]", "CLASS NAME": "false"}
{"COMPOUND": "CCN(C)/C=N/c1cc(Cl)c(Oc2ccccc2F)cc1C", "CLASS NAME": "false"}
{"COMPOUND": "CCN(C)C=Nc1cc(Cl)c(Oc2ccccc2Cl)cc1C", "CLASS NAME": "false"}

---

This listing pairs molecules with measured half-life at 58.8 µg/mL.
assay: Hydrolysis stability test in homogeneous aqueous solution; format: physicochemical; settings: buffer pH 9/acetonitrile, 50° C., 24 hours, first order degradation assumed, read-out: T1/2 (pH 9) (converted)
ENDPOINT: half-life at 58.8 µg/mL (h)

{"MOLECULE": "CCN(C)C=Nc1cc(Cl)c(Oc2ccccc2Br)cc1C", "ENDPOINT": "half-life at 58.8 µg/mL", "UNIT ABBREVIATION": "h", "MEASURED VALUE": 64}
{"MOLECULE": "CCN(C)/C=N/c1cc(C)c(Oc2ccccc2)cc1C [Compound no. 1 known from WO2008/110313, reference compound]", "ENDPOINT": "half-life at 58.8 µg/mL", "UNIT ABBREVIATION": "h", "MEASURED VALUE": 16}
{"MOLECULE": "CCN(C)C=Nc1cc(C(F)(F)F)c(Oc2ccccc2F)cc1C", "ENDPOINT": "half-life at 58.8 µg/mL", "UNIT ABBREVIATION": "h", "MEASURED VALUE": 74}
{"MOLECULE": "CCN(C)C=Nc1cc(Cl)c(Oc2ccccc2I)cc1C", "ENDPOINT": "half-life at 58.8 µg/mL", "UNIT ABBREVIATION": "h", "MEASURED VALUE": 55}
{"MOLECULE": "CCN(C)/C=N/c1cc(C)c(Oc2ccccc2F)cc1C [reference compound]", "ENDPOINT": "half-life at 58.8 µg/mL", "UNIT ABBREVIATION": "h", "MEASURED VALUE": 17}
{"MOLECULE": "CCN(C)C=Nc1cc(C(F)(F)F)c(Oc2ccccc2Br)cc1C", "ENDPOINT": "half-life at 58.8 µg/mL", "UNIT ABBREVIATION": "h", "MEASURED VALUE": 66}
{"MOLECULE": "CCN(C)/C=N/c1cc(Cl)c(Oc2ccccc2F)cc1C", "ENDPOINT": "half-life at 58.8 µg/mL", "UNIT ABBREVIATION": "h", "MEASURED VALUE": 60}
{"MOLECULE": "CCN(C)C=Nc1cc(Cl)c(Oc2ccccc2Cl)cc1C", "ENDPOINT": "half-life at 58.8 µg/mL", "UNIT ABBREVIATION": "h", "MEASURED VALUE": 53}

---

The reader will find reported chromatographic logP values listed item by item below.
Assay: Log P by HPLC on reversed phase columns (EEC directive 79/831 Annex V.A8)
Assay type: physicochemical
Conditions: LC-UV, acidic range, 0.1% formic acid in water and acetonitrile as eluent, read-out: LogP [a]
Protocol: Measurement of Log P values was performed according to EEC directive 79/831 Annex V.A8 by HPLC (High Performance Liquid Chromatography) on reversed phase columns with the following methods: • ^[a] […] Lambda-max-values were determined using UV-spectra from 200 nm to 400 nm and the peak values of the chromatographic signals.

{"CHEMICAL STRING": "CCN(C)C=Nc1cc(Cl)c(Oc2ccccc2Br)cc1C", "chromatographic logP": 1.86}
{"CHEMICAL STRING": "CCN(C)C=Nc1cc(Cl)c(Oc2ccccc2I)cc1C", "chromatographic logP": 1.81}
{"CHEMICAL STRING": "Cc1cc(Oc2ccccc2Br)c(C(F)(F)F)cc1[N+](=O)[O-]", "chromatographic logP": 4.64}
{"CHEMICAL STRING": "CCN(C)C=Nc1cc(C(F)(F)F)c(Oc2ccccc2F)cc1C", "chromatographic logP": 1.72}
{"CHEMICAL STRING": "Cc1cc(Oc2ccccc2Cl)c(Cl)cc1N", "chromatographic logP": 3.37}

---

# Lookup of reported half-life keyed by entry
assay: Photolysis stability test; type: physicochemical; conditions: dried film in MTP, irradiated at 30° C. and 480 W/m^2, up to 24 h, first order degradation assumed

{"MOLECULE": "CCN(C)/C=N/c1cc(Cl)c(Oc2ccccc2F)cc1C", "MODIFIER SIGN": "=", "half-life / h": 32}
{"MOLECULE": "CCN(C)C=Nc1cc(C(F)(F)F)c(Oc2ccccc2F)cc1C", "MODIFIER SIGN": ">", "half-life / h": 200}
{"MOLECULE": "CCN(C)C=Nc1cc(C(F)(F)F)c(Oc2ccccc2Br)cc1C", "MODIFIER SIGN": ">", "half-life / h": 200}
{"MOLECULE": "CCN(C)/C=N/c1cc(C)c(Oc2ccccc2)cc1C [Compound no. 1 known from WO2008/110313, reference compound]", "MODIFIER SIGN": "=", "half-life / h": 10}
{"MOLECULE": "CCN(C)C=Nc1cc(Cl)c(Oc2ccccc2Cl)cc1C", "MODIFIER SIGN": "=", "half-life / h": 59}
{"MOLECULE": "CCN(C)C=Nc1cc(Cl)c(Oc2ccccc2Br)cc1C", "MODIFIER SIGN": ">", "half-life / h": 200}
{"MOLECULE": "CCN(C)C=Nc1cc(Cl)c(Oc2ccccc2I)cc1C", "MODIFIER SIGN": "=", "half-life / h": 34}

---

experiment: Log P by HPLC on reversed phase columns (EEC directive 79/831 Annex V.A8); format: physicochemical; conditions: LC-UV, acidic range, 0.1% formic acid in water and acetonitrile as eluent, read-out: LogP [a]

{"CHEMICAL STRING": "CCN(C)C=Nc1cc(C(F)(F)F)c(Oc2ccccc2Br)cc1C", "chromatographic logP": 1.9}
{"CHEMICAL STRING": "CCN(C)/C=N/c1cc(Cl)c(Oc2ccccc2F)cc1C", "chromatographic logP": 1.64}
{"CHEMICAL STRING": "CCN(C)C=Nc1cc(Cl)c(Oc2ccccc2Cl)cc1C", "chromatographic logP": 1.55}
{"CHEMICAL STRING": "Cc1cc(Oc2ccccc2Cl)c(Cl)cc1[N+](=O)[O-]", "chromatographic logP": 4.51}
{"CHEMICAL STRING": "Cc1cc(Oc2ccccc2Br)c(C(F)(F)F)cc1N", "chromatographic logP": 3.68}
